- Tested on: HeLa Kyoto
- ASSAY_COMMENT: thermal stability score vs G1/S (z-score of summed log2 fold changes over temperatures); higher = more thermally stable than in G1/S
- REPORTED_CONDITIONS: cell cycle stage: mitosis
Tag: class 1 if measured thermal stability score is not below -0.2, class 0 if it is.

Consider the following illustrative entries.
# ITEM_SEQUENCE, ASSIGNED_CATEGORY
measured = [
    ("MGRRSSDTEEESRSKRKKKHRRRSSSSSSSDSRTYSRKKGGRKSRSKSRSWSRDLQPRSHSYDRRRRHRSSSSSSYGSRRKRSRSRSRGRGKSYRVQRSRSKSRTRRSRSRPRLRSHSRSSERSSHRRTRSRSRDRERRKGRDKEKREKEKDKGKDKELHNIKRGESGNIKAGLEHLPPAEQAKARLQLVLEAAAKADEALKAKERNEEEAKRRKEEDQATLVEQVKRVKEIEAIESDSFVQQTFRSSKEVKKSVEPSEVKQATSTSGPASAVADPPSTEKEIDPTSIPTAIKYQDDNSLAHPNLFIEKADAEEKWFKRLIALRQERLMGSPVA [RSRC1]", "class 0"),
    ("MAAAVAAAPGALGSLHAGGARLVAACSAWLCPGLRLPGSLAGRRAGPAIWAQGWVPAAGGPAPKRGYSSEMKTEDELRVRHLEEENRGIVVLGINRAYGKNSLSKNLIKMLSKAVDALKSDKKVRTIIIRSEVPGIFCAGADLKERAKMSSSEVGPFVSKIRAVINDIANLPVPTIAAIDGLALGGGLELALACDIRVAASSAKMGLVETKLAIIPGGGGTQRLPRAIGMSLAKELIFSARVLDGKEAKAVGLISHVLEQNQEGDAAYRKALDLAREFLPQGPVAMRVAKLAINQGMEVDLVTGLAIEEACYAQTIPTKDRLEGLLAFKEKRPPRYKGE [AUH]", "class 1"),
    ("MSQAVQTNGTQPLSKTWELSLYELQRTPQEAITDGLEIVVSPRSLHSELMCPICLDMLKNTMTTKECLHRFCADCIITALRSGNKECPTCRKKLVSKRSLRPDPNFDALISKIYPSRDEYEAHQERVLARINKHNNQQALSHSIEEGLKIQAMNRLQRGKKQQIENGSGAEDNGDSSHCSNASTHSNQEAGPSNKRTKTSDDSGLELDNNNAAMAIDPVMDGASEIELVFRPHPTLMEKDDSAQTRYIKTSGNATVDHLSKYLAVRLALEELRSKGESNQMNLDTASEKQYTIYIATASGQFTVLNGSFSLELVSEKYWKVNKPMELYYAPTKEHK [RNF2]", "class 1"),
    ("MDMLDPGLDPAASATAAAAASHDKGPEAEEGVELQEGGDGPGAEEQTAVAITSVQQAAFGDHNIQYQFRTETNGGQVTYRVVQVTDGQLDGQGDTAGAVSVVSTAAFAGGQQAVTQVGVDGAAQRPGPAAASVPPGPAAPFPLAVIQNPFSNGGSPAAEAVSGEARFAYFPASSVGDTTAVSVQTTDQSLQAGGQFYVMMTPQDVLQTGTQRTIAPRTHPYSPKIDGTRTPRDERRRAQHNEVERRRRDKINNWIVQLSKIIPDCNADNSKTGASKGGILSKACDYIRELRQTNQRMQETFKEAERLQMDNELLRQQIEELKNENALLRAQLQQHNLEMVGEGTRQ [USF2]", "class 0"),
]

With those in mind, consider the next sequence.
Query block: Has MATRSPGVVISDDEPGYDLDLFCIPNHYAEDLERVFIPHGLIMDRTERLARDVMKEMGGHHIVALCVLKGGYKFFADLLDYIKALNRNSDRSIPMTVDFIRLKSYCNDQSTGDIKVIGGDDLSTLTGKNVLIVEDIIDTGKTMQTLLSLVRQYNPKMVKVASLLVKRTPRSVGYKPDFVGFEIPDKFVVGYALDYNEYFRDLNHVCVISETGKAKYKA [HPRT1] a recorded thermal stability score greater than or equal to -0.2?
Result block: class 0

----------
Reported thermal stability score values for the following sequences.
- System: HeLa Kyoto;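 further: synchronized HeLa Kyoto cells, proteins quantified by TMT10plex mass spectrometry, three biological replicates, mitosis taken 0.5 h after nocodazole release, G1/S directly after double thymidine block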
- ASSAY_COMMENT: thermal stability score vs G1/S (z-score of summed log2 fold changes over temperatures); higher = more thermally stable than in G1/S
- REPORTED_CONDITIONS: cell cycle stage: early G1 (4.5 h after nocodazole release)
Give the figure by itself; no unit, no explanation.

# ITEM_SEQUENCE, MEASURED_ON, NUMERIC_READOUT
measured = [
    ("MGRRSSDTEEESRSKRKKKHRRRSSSSSSSDSRTYSRKKGGRKSRSKSRSWSRDLQPRSHSYDRRRRHRSSSSSSYGSRRKRSRSRSRGRGKSYRVQRSRSKSRTRRSRSRPRLRSHSRSSERSSHRRTRSRSRDRERRKGRDKEKREKEKDKGKDKELHNIKRGESGNIKAGLEHLPPAEQAKARLQLVLEAAAKADEALKAKERNEEEAKRRKEEDQATLVEQVKRVKEIEAIESDSFVQQTFRSSKEVKKSVEPSEVKQATSTSGPASAVADPPSTEKEIDPTSIPTAIKYQDDNSLAHPNLFIEKADAEEKWFKRLIALRQERLMGSPVA [RSRC1]", "HeLa Kyoto", -1.05),
    ("MADGQMPFSCHYPSRLRRDPFRDSPLSSRLLDDGFGMDPFPDDLTASWPDWALPRLSSAWPGTLRSGMVPRGPTATARFGVPAEGRTPPPFPGEPWKVCVNVHSFKPEELMVKTKDGYVEVSGKHEEKQQEGGIVSKNFTKKIQLPAEVDPVTVFASLSPEGLLIIEAPQVPPYSTFGESSFNNELPQDSQEVTCT [HSPB8]", "HeLa Kyoto", -0.244),
    ("MVKLTAELIEQAAQYTNAVRDRELDLRGYKIPVIENLGATLDQFDAIDFSDNEIRKLDGFPLLRRLKTLLVNNNRICRIGEGLDQALPCLTELILTNNSLVELGDLDPLASLKSLTYLSILRNPVTNKKHYRLYVIYKVPQVRVLDFQKVKLKERQEAEKMFKGKRGAQLAKDIARRSKTFNPGAGLPTDKKKGGPSPGDVEAIKNAIANASTLAEVERLKGLLQSGQIPGRERRSGPTDDGEEEMEEDTVTNGS [SNRPA1]", "HeLa Kyoto", 0.145),
]

Query block: Which measured thermal stability score value corresponds to MSDFDSNPFADPDLNNPFKDPSVTQVTRNVPPGLDEYNPFSDSRTPPPGGVKMPNVPNTQPAIMKPTEEHPAYTQIAKEHALAQAELLKRQEELERKAAELDRREREMQNLSQHGRKNNWPPLPSNFPVGPCFYQDFSVDIPVEFQKTVKLMYYLWMFHAVTLFLNIFGCLAWFCVDSARAVDFGLSILWFLLFTPCSFVCWYRPLYGAFRSDSSFRFFVFFFVYICQFAVHVLQAAGFHNWGNCGWISSLTGLNQNIPVGIMMIIIAALFTASAVISLVMFKKVHGLYRTTGASFEKAQQEFATGVMSNKTVQTAAANAASTAASSAAQNAFKGNQI [SCAMP1] ?
Result block: -0.608

Query block: Which thermal stability score reading was recorded for the sequence MAARVLRARGAAWAGGLLQRAAPCSLLPRLRTWTSSSNRSREDSWLKSLFVRKVDPRKDAHSNLLAKKETSNLYKLQFHNVKPECLEAYNKICQEVLPKIHEDKHYPCTLVGTWNTWYGEQDQAVHLWRYEGGYPALTEVMNKLRENKEFLEFRKARSDMLLSRKNQLLLEFSFWNEPVPRSGPNIYELRSYQLRPGTMIEWGNYWARAIRFRQDGNEAVGGFFSQIGQLYMVHHLWAYRDLQTREDIRNAAWHKHGWEELVYYTVPLIQEMESRIMIPLKTSPLQ [GBAS] ?
Result block: -0.626

Query block: Which value of thermal stability score has been reported for MQRALPGARQHLGAILASASVVVKALCAAVLFLYLLSFAVDTGCLAVTPGYLFPPNFWIWTLATHGLMEQHVWDVAISLTTVVVAGRLLEPLWGALELLIFFSVVNVSVGLLGAFAYLLTYMASFNLVYLFTVRIHGALGFLGGVLVALKQTMGDCVVLRVPQVRVSVMPMLLLALLLLLRLATLLQSPALASYGFGLLSSWVYLRFYQRHSRGRGDMADHFAFATFFPEILQPVVGLLANLVHSLLVKVKICQKTVKRYDVGAPSSITISLPGTDPQDAERRRQLALKALNERLKRVEDQSIWPSMDDDEEESGAKVDSPLPSDKAPTPPGKGAAPESSLITFEAAPPTL [TMEM115] in the records?
Result block: -2.84

Query block: // returns reported thermal stability score for input MAAVVAKREGPPFISEAAVRGNAAVLDYCRTSVSALSGATAGILGLTGLYGFIFYLLASVLLSLLLILKAGRRWNKYFKSRRPLFTGGLIGGLFTYVLFWTFLYGMVHVY [EMC6]
Result block: 1.03

Query block: State the recorded thermal stability score for this entry: MAAVQMDPELAKRLFFEGATVVILNMPKGTEFGIDYNSWEVGPKFRGVKMIPPGIHFLHYSSVDKANPKEVGPRMGFFLSLHQRGLTVLRWSTLREEVDLSPAPESEVEAMRANLQELDQFLGPYPYATLKKWISLTNFISEATVEKLQPENRQICAFSDVLPVLSMKHTKDRVGQNLPRCGIECKSYQEGLARLPEMKPRAGTEIRFSELPTQMFPEGATPAEITKHSMDLSYALETVLNKQFPSSPQDVLGELQFAFVCFLLGNVYEAFEHWKRLLNLLCRSEAAMMKHHTLYINLISILYHQLGEIPADFFVDIVSQDNFLTSTLQVFFSSACSIAVDATLRKKAEKFQAHLTKKFRWDFAAEPEDCAPVVVELPEGIEMG [AAR2]
Result block: 0.316

Query block: Value lookup for thermal stability score; key = MLVVEVANGRSLVWGAEAVQALRERLGVGGRTVGALPRGPRQNSRLGLPLLLMPEEARLLAEIGAVTLVSAPRPDSRHHSLALTSFKRQQEESFQEQSALAAEARETRRQELLEKITEGQAAKKQKLEQASGASSSQEAGSSQAAKEDETSDGQASGEQEEAGPSSSQAGPSNGVAPLPRSALLVQLATARPRPVKARPLDWRVQSKDWPHAGRPAHELRYSIYRDLWERGFFLSAAGKFGGDFLVYPGDPLRFHAHYIAQCWAPEDTIPLQDLVAAGRLGTSVRKTLLLCSPQPDGKVVYTSLQWASLQ [TSEN34]
Result block: 1.68

Query block: Which thermal stability score is reported for this sequence? MSERKVLNKYYPPDFDPSKIPKLKLPKDRQYVVRLMAPFNMRCKTCGEYIYKGKKFNARKETVQNEVYLGLPIFRFYIKCTRCLAEITFKTDPENTDYTMEHGATRNFQAEKLLEEEEKRVQKEREDEELNNPMKVLENRTKDSKLEMEVLENLQELKDLNQRQAHVDFEAMLRQHRLSEEERRRQQQEEDEQETAALLEEARKRRLLEDSDSEDEAAPSPLQPALRPNPTAILDEAPKPKRKVEVWEQSVGSLGSRPPLSRLVVVKKAKADPDCSNGQPQAAPTPGAPQNRKEANPTPLTPGASSLSQLGAYLDSDDSNGSN [CCDC94]
Result block: 0.296

Taken from the supplement of paper PMC5998384.
